Values compiled from patent US11725107B2.

Notes on MIC obtained with K. pneumoniae.
Kindly provide the numeric value in µg/mL only, without the unit symbol.

Answered examples (2):
CO[C@H]1/C=C/O[C@@]2(C)Oc3c(C)c(O)c4c(O)c(c(/C=N/N5CCN(C)CC5)c(O)c4c3C2=O)NC(=O)/C(C)=C\C=C\[C@H](C)[C@H](O)[C@@H](C)[C@@H](O)[C@@H](C)[C@H](OC(C)=O)[C@@H]1C	31.3
CN(C)[C@@H]1C(O)=C(C(N)=O)C(=O)[C@@]2(O)C(O)=C3C(=O)c4c(O)ccc(Cl)c4[C@@](C)(O)[C@H]3C[C@@H]12	15.6

As a next step, examine the compound that follows.
// returns reported MIC for input CCN1CCN(c2cc3c(cc2F)c(=O)c(C(=O)O)cn3C2CC2)CC1 1
